Listed here are compounds together with their documented AC35.
system: A673 NR0B1-luciferase reporter, viability-normalised luminescence; test: suppressors of NR0B1-promoter luciferase reporter, dose response, EWS/Fli inhibitor project, luciferase luminescence, A673 cells, cherry-pick (AID 686920)

// known answers, use as guide
# Smiles code, AC35
rows = [
    ("O=C(O)c1ccc(N/N=C/c2ccc(OC(=O)c3cccc(Cl)c3)cc2)cc1", "7.06 µM"),
    ("COc1ccc(S(=O)(=O)N2CC[C@@H]3[C@H](CO)Nc4ccc(-c5ccc(C#N)cc5)cc4[C@@H]32)cc1", "4.3 µM"),
]

Need AC35 of "COc1ccc(-c2sc3ccccc3c2-c2ccc(OCCN3CCCCC3)cc2)cc1" , thanks.
7.87 µM

Need AC35 of "COC(=O)Cc1[nH]n(-c2nc3ccccc3s2)c(=O)c1C(C)=Nc1ccc(C)cc1" , thanks.
0.17 µM

Need AC35 of "CC(=O)Nc1ccc(S(=O)(=O)Nc2ccc(N3CCCCC3)cc2)cc1" , thanks.
8.66 µM
